- protocol: activity coefficient (dimensionless); of the first substance listed, at infinite dilution; xn = mol fraction of the nth substance listed
- conditions: 318.15 K; 101 kPa; Liquid; Chromatography; x1 = 0
activity coefficient under 1 gets 1, anything at or over 1 gets 0.

CCOC(C)=O [ethyl acetate] + CCCC[n+]1ccc(C)cc1.N#CC(=C=[N-])C#N | 0
CC1CCCCC1 [methylcyclohexane] + CCCC[n+]1ccc(C)cc1.N#CC(=C=[N-])C#N | 0
C=CCCCCCC [oct-1-ene] + CCCC[n+]1ccc(C)cc1.N#CC(=C=[N-])C#N | 0
CC#N [acetonitrile] + CCCC[n+]1ccc(C)cc1.N#CC(=C=[N-])C#N | 1
CCO [ethanol] + CCCC[n+]1ccc(C)cc1.N#CC(=C=[N-])C#N | 1

Now consider the entry below.
Regarding CCCCCCCCCC [decane] + CCCC[n+]1ccc(C)cc1.N#CC(=C=[N-])C#N , kindly confirm whether its activity coefficient is beneath 1.
0

###

- protocol: activity coefficient (dimensionless); of the first substance listed, at infinite dilution; xn = mol fraction of the nth substance listed
- conditions: 328.15 K; 101 kPa; Liquid; Chromatography; x1 = 0
activity coefficient under 1 gets label 1, anything at or over 1 gets label 0.

CCCCCC [hexane] + CCCC[n+]1ccc(C)cc1.N#CC(=C=[N-])C#N | label 0
CC#N [acetonitrile] + CCCC[n+]1ccc(C)cc1.N#CC(=C=[N-])C#N | label 1
CC(C)O [propan-2-ol] + CCCC[n+]1ccc(C)cc1.N#CC(=C=[N-])C#N | label 0

Regarding Cc1cccc(C)c1 [1,3-dimethylbenzene] + CCCC[n+]1ccc(C)cc1.N#CC(=C=[N-])C#N , kindly confirm whether its activity coefficient is beneath 1.
label 0

Regarding C#CCCCC [1-hexyne] + CCCC[n+]1ccc(C)cc1.N#CC(=C=[N-])C#N , kindly confirm whether its activity coefficient is beneath 1.
label 0

###

- protocol: activity coefficient (dimensionless); of the first substance listed, at infinite dilution; xn = mol fraction of the nth substance listed
- conditions: 318.15 K; 101 kPa; Liquid; Chromatography; x1 = 0
Listed below: activity coefficient values for each entry.
Keep the answer to the number alone.

In the examples that follow, each entry is paired with its recorded activity coefficient.
C1CCCCC1 [cyclohexane] + CCCC[n+]1ccc(C)cc1.N#CC(=C=[N-])C#N | 11.1
CO [methanol] + CCCC[n+]1ccc(C)cc1.N#CC(=C=[N-])C#N | 0.663
CCCC(C)=O [pentan-2-one] + CCCC[n+]1ccc(C)cc1.N#CC(=C=[N-])C#N | 0.955
CCCCCCC [heptane] + CCCC[n+]1ccc(C)cc1.N#CC(=C=[N-])C#N | 33.7
CC(C)CO [2-methyl-1-propanol] + CCCC[n+]1ccc(C)cc1.N#CC(=C=[N-])C#N | 1.33

# return recorded activity coefficient for input CCCCO [butan-1-ol] + CCCC[n+]1ccc(C)cc1.N#CC(=C=[N-])C#N
1.31

# return recorded activity coefficient for input C=CCCCC [hex-1-ene] + CCCC[n+]1ccc(C)cc1.N#CC(=C=[N-])C#N
11.1

# return recorded activity coefficient for input C1COCCO1 [1,4-dioxane] + CCCC[n+]1ccc(C)cc1.N#CC(=C=[N-])C#N
0.573

# return recorded activity coefficient for input O [water] + CCCC[n+]1ccc(C)cc1.N#CC(=C=[N-])C#N
0.971

###

Listed below: activity coefficient values for each entry.
- protocol: activity coefficient (dimensionless); of the first substance listed, at infinite dilution; xn = mol fraction of the nth substance listed
- conditions: 368.15 K; 101 kPa; Liquid; Chromatography; x1 = 0
Keep the answer to the number alone.

In the examples that follow, each entry is paired with its recorded activity coefficient.
C#CCCCCC [1-heptyne] + CCCC[n+]1ccc(C)cc1.N#CC(=C=[N-])C#N | 4.43
CCOC(C)=O [ethyl acetate] + CCCC[n+]1ccc(C)cc1.N#CC(=C=[N-])C#N | 1.46
CCO [ethanol] + CCCC[n+]1ccc(C)cc1.N#CC(=C=[N-])C#N | 0.755
c1ccsc1 [thiophene] + CCCC[n+]1ccc(C)cc1.N#CC(=C=[N-])C#N | 0.748
CCCCO [butan-1-ol] + CCCC[n+]1ccc(C)cc1.N#CC(=C=[N-])C#N | 1.05

# return recorded activity coefficient for input CCCO [propan-1-ol] + CCCC[n+]1ccc(C)cc1.N#CC(=C=[N-])C#N
0.872

# return recorded activity coefficient for input c1ccncc1 [pyridine] + CCCC[n+]1ccc(C)cc1.N#CC(=C=[N-])C#N
0.557

# return recorded activity coefficient for input Cc1ccccc1C [1,2-dimethylbenzene] + CCCC[n+]1ccc(C)cc1.N#CC(=C=[N-])C#N
1.66

# return recorded activity coefficient for input O [water] + CCCC[n+]1ccc(C)cc1.N#CC(=C=[N-])C#N
0.796

###

- protocol: activity coefficient (dimensionless); of the first substance listed, at infinite dilution; xn = mol fraction of the nth substance listed
- conditions: 318.15 K; 101 kPa; Liquid; Chromatography; x1 = 0
quantity.name: activity coefficient
Keep the answer to the number alone.

# return recorded activity coefficient for input CCc1ccccc1 [ethylbenzene] + CCCC[n+]1ccc(C)cc1.N#CC(=C=[N-])C#N
1.78

# return recorded activity coefficient for input CCCCCCCCC [nonane] + CCCC[n+]1ccc(C)cc1.N#CC(=C=[N-])C#N
65.1

# return recorded activity coefficient for input C1CCCCCC1 [cycloheptane] + CCCC[n+]1ccc(C)cc1.N#CC(=C=[N-])C#N
12.8

# return recorded activity coefficient for input C#CCCCCC [1-heptyne] + CCCC[n+]1ccc(C)cc1.N#CC(=C=[N-])C#N
4.09

###

Listed below: activity coefficient values for each entry.
- protocol: activity coefficient (dimensionless); of the first substance listed, at infinite dilution; xn = mol fraction of the nth substance listed
- conditions: 368.15 K; 101 kPa; Liquid; Chromatography; x1 = 0

In the examples that follow, each entry is paired with its recorded activity coefficient.
CC(C)CO [2-methyl-1-propanol] + CCCC[n+]1ccc(C)cc1.N#CC(=C=[N-])C#N | 1.02
CC1CCCCC1 [methylcyclohexane] + CCCC[n+]1ccc(C)cc1.N#CC(=C=[N-])C#N | 12.1
C1CCCCC1 [cyclohexane] + CCCC[n+]1ccc(C)cc1.N#CC(=C=[N-])C#N | 8.65
CCCCCC [hexane] + CCCC[n+]1ccc(C)cc1.N#CC(=C=[N-])C#N | 19.1
CCCCCCCCC [nonane] + CCCC[n+]1ccc(C)cc1.N#CC(=C=[N-])C#N | 45.8

# return recorded activity coefficient for input CCCCCCCC [octane] + CCCC[n+]1ccc(C)cc1.N#CC(=C=[N-])C#N
34.6

# return recorded activity coefficient for input CCCC(C)=O [pentan-2-one] + CCCC[n+]1ccc(C)cc1.N#CC(=C=[N-])C#N
1.1

# return recorded activity coefficient for input C1COCCO1 [1,4-dioxane] + CCCC[n+]1ccc(C)cc1.N#CC(=C=[N-])C#N
0.708

# return recorded activity coefficient for input c1ccccc1 [benzene] + CCCC[n+]1ccc(C)cc1.N#CC(=C=[N-])C#N
1.02

###

- protocol: activity coefficient (dimensionless); of the first substance listed, at infinite dilution; xn = mol fraction of the nth substance listed
- conditions: 318.15 K; 101 kPa; Liquid; Chromatography; x1 = 0
quantity.name: activity coefficient
Keep the answer to the number alone.

In the examples that follow, each entry is paired with its recorded activity coefficient.
CC(C)=O [acetone] + CCCC[n+]1ccc(C)cc1.N#CC(=C=[N-])C#N | 0.598
c1ccccc1 [benzene] + CCCC[n+]1ccc(C)cc1.N#CC(=C=[N-])C#N | 0.889

# return recorded activity coefficient for input C1CCOC1 [tetrahydrofuran] + CCCC[n+]1ccc(C)cc1.N#CC(=C=[N-])C#N
0.779

# return recorded activity coefficient for input Cc1ccccc1 [toluene] + CCCC[n+]1ccc(C)cc1.N#CC(=C=[N-])C#N
1.19

# return recorded activity coefficient for input CCC(=O)CC [pentan-3-one] + CCCC[n+]1ccc(C)cc1.N#CC(=C=[N-])C#N
0.942

# return recorded activity coefficient for input C#CCCCC [1-hexyne] + CCCC[n+]1ccc(C)cc1.N#CC(=C=[N-])C#N
2.98

# return recorded activity coefficient for input CCCO [propan-1-ol] + CCCC[n+]1ccc(C)cc1.N#CC(=C=[N-])C#N
1.06

# return recorded activity coefficient for input CCCCCC [hexane] + CCCC[n+]1ccc(C)cc1.N#CC(=C=[N-])C#N
24.3

# return recorded activity coefficient for input c1ccsc1 [thiophene] + CCCC[n+]1ccc(C)cc1.N#CC(=C=[N-])C#N
0.636

###

- protocol: activity coefficient (dimensionless); of the first substance listed, at infinite dilution; xn = mol fraction of the nth substance listed
- conditions: 338.15 K; 101 kPa; Liquid; Chromatography; x1 = 0
quantity.name: activity coefficient
Keep the answer to the number alone.

c1ccncc1 [pyridine] + CCCC[n+]1ccc(C)cc1.N#CC(=C=[N-])C#N | 0.51
c1ccsc1 [thiophene] + CCCC[n+]1ccc(C)cc1.N#CC(=C=[N-])C#N | 0.678
CC(C)=O [acetone] + CCCC[n+]1ccc(C)cc1.N#CC(=C=[N-])C#N | 0.634

# return recorded activity coefficient for input O [water] + CCCC[n+]1ccc(C)cc1.N#CC(=C=[N-])C#N
0.887

# return recorded activity coefficient for input C1CCCCC1 [cyclohexane] + CCCC[n+]1ccc(C)cc1.N#CC(=C=[N-])C#N
10

# return recorded activity coefficient for input CCCCCCCC [octane] + CCCC[n+]1ccc(C)cc1.N#CC(=C=[N-])C#N
41.1

# return recorded activity coefficient for input Cc1ccccc1 [toluene] + CCCC[n+]1ccc(C)cc1.N#CC(=C=[N-])C#N
1.27

# return recorded activity coefficient for input C=CCCCCCC [oct-1-ene] + CCCC[n+]1ccc(C)cc1.N#CC(=C=[N-])C#N
19.7

# return recorded activity coefficient for input CC(C)CO [2-methyl-1-propanol] + CCCC[n+]1ccc(C)cc1.N#CC(=C=[N-])C#N
1.16

# return recorded activity coefficient for input CCCCO [butan-1-ol] + CCCC[n+]1ccc(C)cc1.N#CC(=C=[N-])C#N
1.17

# return recorded activity coefficient for input C1CCOC1 [tetrahydrofuran] + CCCC[n+]1ccc(C)cc1.N#CC(=C=[N-])C#N
0.827
